System: SNB-75 CNS
Assay: NCI tumour cell line growth inhibition, 48 h
Where a SMILES comes first, the peptide text is derived from it. [ ]: non-standard residue; d: D form. The star is where a group is joined. ξ: configuration not given here. NMeF = CN[C@@H](Cc1ccccc1)C(=O)O; ξNMeV = CNC(C(=O)O)C(C)C; Boc = CC(C)(C)OC(=O)*; OBn = c1ccc(CO*)cc1
recordedEndpoint: TGI

These solved cases illustrate the format of a correct answer.
(Q) Would you kindly share the measured TGI for COC(=O)/C=C1/N=C(N(C)/N=C/c2ccccc2)NC1=O ?
(A) > 100 µM

(Q) Please give the result for CC[CH2][Sn]([Cl])([Cl])[CH2]CC too.
(A) 20.1 µM

(Q) Further, for CCOC(=O)c1cc2c([nH]1)C(=O)CC1=C2CCN1Cc1ccccc1 ?
(A) 46.2 µM

(Q) Same question, OC(COc1cccc2ccccc12)CN1CCN(c2ccccc2)CC1 (centres undefined) this time
(A) 27.2 µM

(Q) And C[C@@H](NC(=O)OC1C=CC2(CC1)C(=O)N(C)c1ccccc12)c1cccc2ccccc12 (some centres undefined) ?
(A) > 25 µM

***
(Q) Reported TGI, molecule CC(C)OP(=O)(OC(C)C)/C(=N/N)NNc1ccc([N+](=O)[O-])cc1 : ____
(A) > 100 µM

(Q) Also check CC(C)C(C(=O)N1CCC[C@@H]1C(=O)OCc1ccccc1)N(C)C(=O)C(C(C)C)N(C)C(=O)[C@H](Cc1ccccc1)N(C)C(=O)[C@H](NC(=O)OC(C)(C)C)C(C)C (some centres undefined) (Boc-[dV][NMeF][ξNMeV][ξNMeV][dP]-OBn)
(A) > 100 µM

(Q) And for O=P1(Oc2ccc(Cl)cc2)OCCS1 (centres undefined) ?
(A) > 100 µM

(Q) Also need COc1cccc(C2C3=C(COC3=O)N(CCO)c3cc4c(cc32)OCCO4)c1 (centres undefined) , thanks.
(A) 0.424 µM
